# Study System: hERG (KCNH2) (Homo sapiens)
# Sequence (Q12809 whole entry): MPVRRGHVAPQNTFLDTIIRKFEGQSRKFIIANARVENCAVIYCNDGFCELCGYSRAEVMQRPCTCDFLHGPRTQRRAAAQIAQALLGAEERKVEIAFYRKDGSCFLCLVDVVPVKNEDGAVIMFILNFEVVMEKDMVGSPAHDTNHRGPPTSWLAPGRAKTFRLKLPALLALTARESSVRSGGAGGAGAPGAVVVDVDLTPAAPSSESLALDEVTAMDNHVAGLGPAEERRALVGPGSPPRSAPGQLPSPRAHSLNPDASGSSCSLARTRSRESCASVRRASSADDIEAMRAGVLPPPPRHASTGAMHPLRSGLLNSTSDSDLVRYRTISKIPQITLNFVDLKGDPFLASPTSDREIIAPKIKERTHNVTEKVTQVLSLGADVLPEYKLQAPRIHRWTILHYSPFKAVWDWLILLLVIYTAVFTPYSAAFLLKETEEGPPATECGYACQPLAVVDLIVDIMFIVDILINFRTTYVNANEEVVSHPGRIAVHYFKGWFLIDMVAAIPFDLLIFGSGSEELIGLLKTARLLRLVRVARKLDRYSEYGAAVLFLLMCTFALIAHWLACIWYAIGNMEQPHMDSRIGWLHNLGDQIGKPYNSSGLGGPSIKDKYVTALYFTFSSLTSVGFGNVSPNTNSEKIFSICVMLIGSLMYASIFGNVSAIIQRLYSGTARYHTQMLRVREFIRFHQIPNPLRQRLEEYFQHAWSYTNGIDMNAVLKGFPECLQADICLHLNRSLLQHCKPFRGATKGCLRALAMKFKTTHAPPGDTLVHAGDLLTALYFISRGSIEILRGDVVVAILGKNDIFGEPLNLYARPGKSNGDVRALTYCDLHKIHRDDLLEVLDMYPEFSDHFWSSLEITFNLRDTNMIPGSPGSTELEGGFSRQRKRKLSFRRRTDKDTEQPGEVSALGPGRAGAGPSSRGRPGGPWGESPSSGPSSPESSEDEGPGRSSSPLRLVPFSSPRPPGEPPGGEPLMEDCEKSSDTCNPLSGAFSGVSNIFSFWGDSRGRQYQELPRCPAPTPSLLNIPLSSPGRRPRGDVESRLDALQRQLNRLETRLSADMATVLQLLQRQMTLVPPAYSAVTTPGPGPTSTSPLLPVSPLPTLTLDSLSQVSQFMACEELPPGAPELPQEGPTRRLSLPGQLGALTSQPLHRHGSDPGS
# Test Details: Inhibition of human ERG expressed in HEK293 cells at 10 uM by automated patch clamp method relative to control
# Type: cell-based
# Run Parameters: HEK293 cells that express hERG

{"Molecule": "CC(=O)O[C@@H]1[C@@H](OC(C)=O)C(C)(C)/C=C/[C@H](C)[C@H](OC(C)=O)[C@@]2(O)C[C@H](C)[C@H](OC(=O)c3ccccc3)[C@@H]2/C=C(\\C)[C@@H]1OC(C)=O", "Units Text": "%", "inhibition at 10 µM": 24}
{"Molecule": "C/C=C(/C)C(=O)O[C@H]1C(C)=C[C@@]23C(=O)[C@@H](C=C(C)[C@@H](O)[C@]12O)[C@H]1[C@@H](C[C@H]3C)C1(C)C", "Units Text": "%", "inhibition at 10 µM": 7.9}
{"Molecule": "CC(=O)O[C@@H]1C[C@@H](OC(C)=O)C(C)(C)/C=C/[C@H](C)[C@H](OC(C)=O)[C@@]2(O)C[C@H](C)[C@H](OC(=O)c3ccccc3)[C@@H]2/C=C/1C [EUPHORNIN]", "Units Text": "%", "inhibition at 10 µM": 19}
{"Molecule": "C/C=C(\\C)C(=O)O[C@@H]1C[C@@H](OC(C)=O)C(C)(C)/C=C/[C@H](C)[C@H](OC(C)=O)[C@@]2(O)C[C@H](C)[C@H](OC(=O)c3ccccc3)[C@@H]2/C=C/1C", "Units Text": "%", "inhibition at 10 µM": 24.9}
{"Molecule": "C/C=C(/C)C(=O)OCC1(C)[C@H]2[C@@H]3C=C(C)[C@@H](O)[C@]4(O)[C@@H](OC(=O)/C(C)=C\\C)C(C)=C[C@]4(C3=O)[C@H](C)C[C@H]21 (some centres not stated)", "Units Text": "%", "inhibition at 10 µM": 55.4}
{"Molecule": "C/C=C(\\C)C(=O)O[C@H]1/C(C)=C/[C@H]2[C@@H](OC(=O)c3ccccc3)[C@@H](C)C[C@]2(O)[C@@H](OC(C)=O)[C@@H](C)/C=C/C(C)(C)[C@H](OC(C)=O)[C@H]1OC(C)=O", "Units Text": "%", "inhibition at 10 µM": 24.4}
{"Molecule": "CC(=O)O[C@@H]1[C@@H](OC(C)=O)C(C)(C)/C=C/[C@H](C)[C@H](O)[C@@]2(OC(C)=O)C[C@H](C)[C@H](OC(=O)c3ccccc3)[C@@H]2/C=C(\\C)[C@@H]1OC(C)=O", "Units Text": "%", "inhibition at 10 µM": 22.7}

---

In this section we review reported inhibition values for a set of molecules.
# Study System: Kir3.1/Kir3.4 (Homo sapiens) (UniProt P48549+P48544)
# Test Details: Inhibition of GIRK-1/4 channel (unknown origin) expressed in HEK293 cells at 10 uM by automated patch clamp method relative to control
# Assay type: cell-based

{"Molecule": "C/C=C(/C)C(=O)OCC1(C)[C@H]2[C@@H]3C=C(C)[C@@H](O)[C@]4(O)[C@@H](OC(=O)/C(C)=C\\C)C(C)=C[C@]4(C3=O)[C@H](C)C[C@H]21 (stereo not given in full)", "inhibition": "80.4%"}
{"Molecule": "C/C=C(\\C)C(=O)O[C@@H]1C[C@@H](OC(C)=O)C(C)(C)/C=C/[C@H](C)[C@H](OC(C)=O)[C@@]2(O)C[C@H](C)[C@H](OC(=O)c3ccccc3)[C@@H]2/C=C/1C", "inhibition": "88.7%"}
{"Molecule": "C/C=C(\\C)C(=O)O[C@H]1/C(C)=C/[C@H]2[C@@H](OC(=O)c3ccccc3)[C@@H](C)C[C@]2(O)[C@@H](OC(=O)/C(C)=C/C)[C@@H](C)/C=C/C(C)(C)[C@H](OC(C)=O)[C@H]1OC(C)=O", "inhibition": "35.7%"}
{"Molecule": "C/C=C(\\C)C(=O)O[C@H]1/C(C)=C/[C@H]2[C@@H](OC(=O)c3ccccc3)[C@@H](C)C[C@]2(O)[C@@H](OC(C)=O)[C@@H](C)/C=C/C(C)(C)[C@H](OC(C)=O)[C@H]1OC(C)=O", "inhibition": "85%"}
{"Molecule": "C=C1CC[C@@H](OC(=O)/C=C/c2ccccc2)C(C)(C)/C=C/[C@H](C)C(=O)[C@@]2(O)C[C@H](C)[C@H](OC(=O)/C=C/c3ccccc3)[C@@H]2[C@H]1OC(C)=O", "inhibition": "23.7%"}
